# Tested on: A498 renal
# assay_text: NCI-60 one-dose screen, 48 h (100 = growth as untreated, 0 = no growth, -100 = all killed)
# test_context: 10 µM
This is part of a sample that, as a whole, favours compounds with a hit. Of some 83,000 tested, about 20% had one in any assay.
For each record, write down the corresponding growth.
One number for each entry, in %.

Go through the list and state growth for each entry.
1. O=C(NCO)c1ccccc1
2. CC1(C(=O)O)NC(C(=O)O)Cc2c1[nH]c1ccccc21 (stereo not drawn)
3. CC(C)CCOC(=O)c1ccccc1
4. COC(=O)c1ccccc1Br
5. N#Cc1c(N)sc(=S)c2c1CCCC2
6. O=C(O)CCCc1ccccc1
7. CC(C)C(C#N)(C(C)C)C(C)C
8. O=[N+]([O-])c1cccc(C(F)(F)F)c1

Output:
1: 106; 2: 91.8; 3: 97.7; 4: 104; 5: 113; 6: 121; 7: 98.3; 8: 98.4

Go through the list and state growth for each entry.
1. O=C(CCl)Nc1ccc2c(c1)C(=O)c1ccc(NC(=O)CCl)cc1C2=O
2. O=C1C=C(O)C(=O)C=C1O
3. COc1cc2c3c(n(C)c(=O)c2cc1OC)-c1cc2c(cc1C3=O)OCO2
4. COc1ccc(/C(C#N)=C2C=C/C(=N/O)c3ccccc3\2)cc1
5. CN(C)c1ccc(C(c2ccc(O)cc2)c2ccc(N(C)C)cc2)cc1

Output:
1. 12.4
2. 92.4
3. 75.5
4. -8.12
5. 85.8

----------
# Test system: KM12 colon
# assay_text: NCI-60 one-dose screen, 48 h
# test_context: 10 µM
The panel holds about 83,000 compounds, 20% with a hit somewhere; the sample as a whole holds those more often. Active and inactive are the calls of the source. The calls were made as follows: active = growth percent below 10; inactive = the rest.
Thanks in advance; please answer with one of these: active, inactive

# count of solved cases: 6
compound | class
CCCCCCCCOC(=O)c1ccccn1 | inactive
COc1cc(/C=C(\C#N)C(=O)c2ccccc2)ccc1OCc1ccccc1 | inactive
O=C(CCNNC(=O)c1ccncc1)NCc1ccccc1 | inactive
O=S(=O)(O)c1ccc(O)c2ccccc12 | inactive
O=C(/C=C/C(=O)c1ccccc1)c1ccccc1 | inactive
COc1cc(/C=N\Nc2ccccc2)ccc1OC(=O)c1ccccc1 | active

Input: Please share the test call associated with O=C1N(C[P+](c2ccccc2)(c2ccccc2)c2ccccc2)CCCN1C[P+](c1ccccc1)(c1ccccc1)c1ccccc1 .
Output: inactive

----------
# System: U251 CNS
# assay_text: NCI-60 one-dose screen, 48 h (100 = growth as untreated, 0 = no growth, -100 = all killed)
# test_context: 10 µM
This is part of a sample that, as a whole, favours compounds with a hit. Of some 83,000 tested, about 20% had one in any assay.
quantity: growth (%)
Give bare numbers, in %.

compound | unit_name | growth
CC(C)OC(=O)c1cc(NC(=S)OC(C)C)ccc1Cl | % | 96.6
CC(=O)OCC1OC(OC2=C(CC=C(C)C)C(=O)c3ccccc3C2=O)C(OC(C)=O)C(OC(C)=O)C1OC(C)=O (stereo not drawn) | % | 8.23
c1c(-c2cc(C3CC3)[nH]n2)n[nH]c1C1CC1 | % | 95.2
Clc1ccc(-c2n[nH]c3c2Cc2ccccc2-3)cc1Cl | % | 97.9
N#CCCc1ccc(O)cc1 | % | 96.9

Go through the list and state growth for each entry.
1. CCOC(=O)/C(=C/c1ccc(OC)cc1)N(CC)CC
2. COC(=O)/C=C/C(=O)NC(N)=O
3. CC1CCC2C(C)(C)C3CC12CC1OC13C (stereo not drawn)

Output:
1: 99.1; 2: 96.8; 3: 102

Go through the list and state growth for each entry.
1. Cc1cccc([N+](=O)[O-])c1Cl
2. CCCCCCCCCCC(C)Br (stereo not drawn)
3. Oc1ccc(O)cc1
4. NC(C(=O)O)C(O)c1ccco1 (stereo not drawn)
5. N#CC1(Nc2ccc3c4c(cccc24)CC3)CCCCC1

Output:
[102, 103, 99.1, 102, 99.8]

----------
# System: BT-549 breast
# assay_text: NCI-60 one-dose screen, 48 h (100 = growth as untreated, 0 = no growth, -100 = all killed)
# test_context: 10 µM
Compounds without any hit were thinned out: in the full panel of roughly 83,000, 20% have a hit.
quantity: growth (%)
Numbers only, in %.

compound | unit_name | growth
CC(C)C(C#N)(C(C)C)C(C)C | % | 102

Go through the list and state growth for each entry.
1. O=c1[nH]cc(Cl)cc1O
2. Cc1cc(OCCO)cc(C)c1Cl
3. Oc1ccc(Cc2ccccc2)c2cccnc12
4. O=C1OC[C@H]2[C@H](c3ccc(O)c(O)c3)c3cc(O)c(O)cc3C[C@H]12
5. CCOC(=O)c1coc(C(=O)OCC)c1C(=O)OCC
6. OCCN1CCOCC1

Output:
1. 90.6
2. 116
3. 11
4. 134
5. 119
6. 115

----------
# Tested on: T-47D breast
# assay_text: NCI-60 one-dose screen, 48 h (100 = growth as untreated, 0 = no growth, -100 = all killed)
# test_context: 10 µM
The panel holds about 83,000 compounds, 20% with a hit somewhere; the sample as a whole holds those more often.
For each record, write down the corresponding growth.
Answers are plain numbers, in %.

Some compounds with recorded growth:
compound | growth [%]
COc1ccc(Oc2c(I)cc(CC(NC(C)=O)C(=O)O)cc2I)cc1 (configuration not stated) | 74
O/N=C/c1ccc(O)cc1O | 94
CC(=O)OC1CC2C(C)(C)OC3CC(=O)OCC32C2CCC3(C)C(=CCC3c3ccoc3)C12C (configuration not stated) | 88.3
O=C(NCO)c1ccccc1 | 102
N#CC(=Nc1cccc(F)c1)C1=C(O)c2ccccc2C1=O | 83.2
CN(C)c1ccc(S(=O)(=O)O)cc1 | 87.6

Go through the list and state growth for each entry.
1. CCO/C=C1\SC(=S)N(c2cccc(C)c2)C1=O
2. O=C1OC[C@H]2[C@H](c3ccc(O)c(O)c3)c3cc(O)c(O)cc3C[C@H]12
3. CCC/C=C(\C)C(C)(C#N)C(=O)OCC (configuration not stated)
4. CC1=CC(C)(C)NC(=S)N1c1ccc(S(=O)(=O)O)c2cccc(S(=O)(=O)O)c12
5. Cc1cc(C(C)(C)C)cc(C)c1Br
6. C#CC(C(C)C)N(CCO)CCCC (configuration not stated)

Output:
93.2
131
112
106
115
100

----------
# Test system: SNB-75 CNS
# assay_text: NCI-60 one-dose screen, 48 h (100 = growth as untreated, 0 = no growth, -100 = all killed)
# test_context: 10 µM
# Procedure: Growth inhibition of the SNB-75 human tumor cell line is measured as a screen for anti-cancer activity. Cells are grown in 96 well plates and exposed to the test compound for 48 hours. Compounds are tested at a single concentration, which is 10^-5 M for most compounds. The reported endpoint is percent growth (GI% or GIPRCNT), where numbers from 0 - 100% represent growth inhibition, and numbers from -100% - 0 represent cell death. For example, a value of 40 represents 60% growth inhibition. […]
The panel holds about 83,000 compounds, 20% with a hit somewhere; the sample as a whole holds those more often.
quantity: growth (%)
Give bare numbers, in %.

Some compounds with recorded growth:
compound | growth / %
O=[N+]([O-])c1ccccc1S(=O)c1ccccc1[N+](=O)[O-] | 83.1
CCc1nc(N)nc(N)c1-c1ccc(Cl)cc1 | 77
O=S(=O)(O)C(Nc1ccccc1)c1ccccc1 (stereo unspecified) | 71.9
CC(=O)OC(OC(C)=O)C1CCCO1 (stereo unspecified) | 90.2

Go through the list and state growth for each entry.
1. CC(O)COc1ccc(-c2ccccc2)cc1 (stereo unspecified)
2. Nc1ccc(CC(=O)O)c(N)c1
3. CO[C@H]1C[C@@H]2CC[C@@H](C)[C@@](O)(O2)C(=O)C(=O)N2CCCC[C@H]2C(=O)O[C@H]([C@H](C)C[C@@H]2CC[C@@H](O)[C@H](OC)C2)CC(=O)[C@H](C)C=C(C)[C@@H](O)[C@@H](OC)C(=O)[C@H](C)C[C@H](C)/C=C/C=C/C=C1C
4. Cc1cccc(CO)c1
5. Nc1ccc(C(=O)c2ccc(N)c(Br)c2)cc1Br
6. CCCCCC(C)(CC(=O)O)CC(=O)O

Output:
102
93.1
13.3
95.1
-5.35
97.4

Input: # get_value(readout='growth', item= Cc1c(C(=O)O)c(=O)n(-c2ccccc2)n1C )
Output: 109

----------
# Test system: OVCAR-4 ovarian
# assay_text: NCI-60 one-dose screen, 48 h (100 = growth as untreated, 0 = no growth, -100 = all killed)
# test_context: 10 µM
This is part of a sample that, as a whole, favours compounds with a hit. Of some 83,000 tested, about 20% had one in any assay.
quantity: growth (%)
Answers are plain numbers, in %.

Some compounds with recorded growth:
compound | growth (%)
Cc1ccc(Cl)cc1N1C(=O)CC(Sc2ccccc2N)C1=O (stereo not given) | 101
NCC(=O)CCC(=O)O | 98
CCN(CC)CCCC(C)Nc1ccnc(/C=C/c2ccc(Cl)cc2)c1 (stereo not given) | 15.4
Cc1ccccc1C1N=C2Oc3ccccc3C=C2C(=O)N1 (stereo not given) | 74.5
O=c1cc(-c2ccccc2)nc2cc(-c3ccco3)[nH]n12 | 91.5
CC(=O)Nc1cccc(Cl)c1C | 109
N#CC(=Nc1cccc(F)c1)C1=C(O)c2ccccc2C1=O | 88.9
COc1ccccc1NC(=O)c1cc2cc(Br)ccc2cc1O | 18.7

Go through the list and state growth for each entry.
1. O=C(O)CCC(=O)OC(C1CO1)C(OC(=O)CCC(=O)O)C1CO1 (stereo not given)
2. CC(=O)N(C)c1ccc([N+](=O)[O-])cc1
3. CC(=O)OC(OC(C)=O)C1CCCO1 (stereo not given)
4. c1ccc(CN2COc3c(ccc4c3OCN(Cc3ccccc3)C4)C2)cc1
5. O=C(NCO)c1ccccc1
6. CCCCCCCCCCC1CO1 (stereo not given)
7. COc1cc(CN)ccc1O
8. CC1CCC2C(C)(C)C3CC12CC1OC13C (stereo not given)

Output:
1: 107; 2: 119; 3: 97.9; 4: 26.3; 5: 109; 6: 98.8; 7: 108; 8: 99.3

Go through the list and state growth for each entry.
1. O=C1C[C@H](c2ccccc2)[C@H](c2ccccc2)C1
2. CCOC(=O)C1=C(C)NC(=O)NC1c1cccs1 (stereo not given)
3. CC1CC(O)C2C3(C)CCCC2(COC3=O)C12CCC1(CCOC1=O)O2 (stereo not given)
4. COC(=O)Nc1nc2ccc(C(=O)c3cccs3)cc2[nH]1

Output:
[105, 117, 103, 36.3]
